System: COPD rats induced by smoke exposure
Assay: COPD induced by smoke exposure in rats: lung function FEV0.2/FVC
Format: in vivo, Wistar rats
Settings: 80 mg/kg oral, 180 days
valueType: FEV2/FVC % (FEV0.2/FVC %, forced expiratory index within 200 ms) (%)
API: value field is a number in %; no unit string.

Q) Endpoint output: FEV2/FVC % (FEV0.2/FVC %, forced expiratory index within 200 ms) of CC(C)=CCC[C@](C)(O[C@@H]1OC(CO)[C@@H](O)[C@H](O)C1O)C1CC[C@]2(C)C1/C(=N\O)CC1[C@@]3(C)CC/C(=N\O)C(C)(C)C3CC[C@]12C (stereo partly drawn) [IVA] . Value?
A) 88.33

Q) Endpoint output: FEV2/FVC % (FEV0.2/FVC %, forced expiratory index within 200 ms) of CC(C)=CCC[C@](C)(O[C@@H]1O[C@H](CO)[C@@H](O)[C@H](O)[C@H]1O)[C@H]1CC[C@]2(C)[C@@H]1[C@H](O)C[C@@H]1[C@@]3(C)CC[C@H](O)C(C)(C)[C@@H]3CC[C@]12C [CK, ginsenoside compound K, reference compound] . Value?
A) 80.24

Q) Endpoint output: FEV2/FVC % (FEV0.2/FVC %, forced expiratory index within 200 ms) of CC(C)=CCC[C@](C)(O[C@@H]1OC[C@@H](O)[C@H](O)C1O)C1CC[C@]2(C)C1[C@H](O)CC1[C@@]3(C)CC[C@H](O)C(C)(C)C3CC[C@]12C (stereo partly drawn) [IJ] . Value?
A) 84.36

---

Tested on: inflammatory cells in bronchoalveolar lavage fluid of mice
Assay: Determination of inflammatory cells in bronchoalveolar lavage fluid of mice (OVA asthma model)
Assay type: in vivo, BALB/C mice
Set-up: unit not given here
Conditions: 2 mg/kg, oral
valueType: lymphocyte in bronchoalveolar lavage fluid

Below, 2 molecules whose answers are already recorded.
>>> valueobserved("CC(C)=CCC[C@](C)(O[C@@H]1OC(CO)[C@@H](O)[C@H](O)C1O)C1CC[C@]2(C)C1C(=O)CC1[C@@]3(C)CC[C@H](O)C(C)(C)C3CC[C@]12C (stereo partly drawn)")
"10.07 ± 6.12"
>>> valueobserved("CC(=O)O[C@H]1CC[C@@]2(C)C(CC[C@]3(C)C2CC(=O)C2C([C@](C)(CCC=C(C)C)O[C@@H]4OC(CO)[C@@H](O)[C@H](O)C4O)CC[C@]23C)C1(C)C (stereo partly drawn)")
"11.81 ± 5.97"

Q) Endpoint output: lymphocyte in bronchoalveolar lavage fluid of COC(=O)C1O[C@@H](O[C@@](C)(CCC=C(C)C)C2CC[C@]3(C)C2C(=O)CC2[C@@]4(C)CC[C@H](OC(C)=O)C(C)(C)C4CC[C@]23C)C(O)[C@@H](O)[C@@H]1O (stereo partly drawn) . Value?
A) 13.22 ± 8.27

The reported numbers originate from patent US11866458B2.
